Molecular target: human PPAR γ 2 (Homo sapiens, UniProt P37231)
Sequence (P37231 whole entry): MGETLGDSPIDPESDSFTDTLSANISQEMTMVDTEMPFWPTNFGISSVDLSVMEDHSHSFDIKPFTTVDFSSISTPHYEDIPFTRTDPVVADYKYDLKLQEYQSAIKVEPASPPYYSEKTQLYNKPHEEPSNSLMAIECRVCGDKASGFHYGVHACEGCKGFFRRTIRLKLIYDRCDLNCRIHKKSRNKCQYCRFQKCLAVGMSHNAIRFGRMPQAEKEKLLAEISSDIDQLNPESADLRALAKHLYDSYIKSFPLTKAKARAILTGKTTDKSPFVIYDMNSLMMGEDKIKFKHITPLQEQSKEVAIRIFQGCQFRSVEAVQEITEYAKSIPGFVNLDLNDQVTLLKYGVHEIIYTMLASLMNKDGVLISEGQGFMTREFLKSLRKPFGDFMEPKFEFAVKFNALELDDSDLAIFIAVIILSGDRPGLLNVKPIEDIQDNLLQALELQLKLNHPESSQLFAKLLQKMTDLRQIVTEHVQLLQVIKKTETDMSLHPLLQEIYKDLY
Assay: Inhibitory activity against PPAR γ transcription in the presence of agonist compound A, luciferase reporter
Conditions: in the presence of 10 nM compound A (agonist); MG63 cells transfected with pSG5-hPPARg and pGV-P2-PPRE; 24 hr
Grouping rule (IC50): low group = under 20 nM, middle group = from 20 nM up to 70 nM, high group = 70 nM and over

{"compound": "CC(=O)Nc1ccc(NC(=O)c2cc([N+](=O)[O-])ccc2Cl)cc1 [Example 117]", "system.tested": "human PPAR γ 2 (Homo sapiens, UniProt P37231)", "category.label": "high group"}
{"compound": "O=C(Nc1ccc(-c2ccc(NC(=S)Nc3cccnc3)cc2)cc1)c1cc([N+](=O)[O-])ccc1Cl [Example 256]", "system.tested": "human PPAR γ 2 (Homo sapiens, UniProt P37231)", "category.label": "low group"}
{"compound": "O=C(Nc1nc(-c2ccccc2)cs1)c1cc([N+](=O)[O-])ccc1Cl [Example 35]", "system.tested": "human PPAR γ 2 (Homo sapiens, UniProt P37231)", "category.label": "middle group"}
{"compound": "CC(C)(C)c1cc(C(=O)Nc2ccc(NC(=O)c3cc([N+](=O)[O-])ccc3Cl)cc2)cc(C(C)(C)C)c1O [Example 157]", "system.tested": "human PPAR γ 2 (Homo sapiens, UniProt P37231)", "category.label": "middle group"}
{"compound": "O=C(Nc1ccc(NC(=O)c2cc([N+](=O)[O-])ccc2Cl)cc1)c1ccccc1 [Example 119]", "system.tested": "human PPAR γ 2 (Homo sapiens, UniProt P37231)", "category.label": "middle group"}
{"compound": "O=C(Nc1ccc(-n2ccnc2)cc1)c1cc([N+](=O)[O-])ccc1Cl [Example 174]", "system.tested": "human PPAR γ 2 (Homo sapiens, UniProt P37231)", "category.label": "low group"}
{"compound": "O=C(Nc1ccc(S(=O)(=O)Nc2nccs2)cc1)c1cc([N+](=O)[O-])ccc1Cl [Example 96]", "system.tested": "human PPAR γ 2 (Homo sapiens, UniProt P37231)", "category.label": "high group"}
{"compound": "CN(C)c1cccc(NC(=O)c2cc([N+](=O)[O-])ccc2Cl)c1 [Example 176]", "system.tested": "human PPAR γ 2 (Homo sapiens, UniProt P37231)", "category.label": "middle group"}
{"compound": "CCCCCCNc1ccc(-c2ccc(NC(=O)c3cc([N+](=O)[O-])ccc3Cl)cc2)cc1 [Example 195]", "system.tested": "human PPAR γ 2 (Homo sapiens, UniProt P37231)", "category.label": "low group"}

----------
System: Rat white adipocytes
Assay: Inhibition of the differentiation of adipocytes (Oil Red O)
Type: cell-based
Settings: Rattus norvegicus, Adipocyte, 120 h, 100 nM test compound; 5 days; Oil Red O ABS550; control = 100%, blank = 0%; Table 3; read-out: Rate of Differentiation (%)
Listed compounds paired with reported activity at 0.1 µM

{"compound": "CCCCCN(CC)c1ccc(-c2ccc(NC(=O)c3cc([N+](=O)[O-])ccc3Cl)cc2)cc1 [Example 216]", "activity at 0.1 µM, %": 32.1}
{"compound": "CC(=O)Nc1nc(-c2cccc(NC(=O)c3cc([N+](=O)[O-])ccc3Cl)c2)cs1 [Example 266]", "activity at 0.1 µM, %": 63.5}
{"compound": "CCCCCCN(CCCC)c1ccc(-c2ccc(NC(=O)c3cc([N+](=O)[O-])ccc3Cl)cc2)cc1 [Example 199]", "activity at 0.1 µM, %": 35.8}
{"compound": "O=C(Nc1ccc(CCO)cc1)c1cc([N+](=O)[O-])ccc1Cl [Example 230]", "activity at 0.1 µM, %": 48.9}
{"compound": "N#Cc1ccc(NC(=O)c2cc([N+](=O)[O-])ccc2Cl)cc1 [Example 20]", "activity at 0.1 µM, %": 57.7}
{"compound": "O=C(Nc1ccc(-c2ccc(NC(=O)c3cc([N+](=O)[O-])ccc3Cl)cc2)cc1)c1cccnc1 [Example 124]", "activity at 0.1 µM, %": 84.2}
{"compound": "CCCCCCNc1ccc(-c2ccc(NC(=O)c3cc([N+](=O)[O-])ccc3Cl)cc2)cc1 [Example 195]", "activity at 0.1 µM, %": 36.5}
